tested on: mu opiate receptor (MOR); test: MOR agonist activity using [35S]GTPγS binding assay in striatal membranes; format: biochemical; conditions: Series B; 0.1 μM compound; [35S]GTPγS binding to Gαo, striatal membranes
Each entry below lists one item and its recorded MOR agonist activity, percent [35S]GTPγS binding at the stated compound concentration value.
# number only, unit % dropped from output

Worked cases, MOR agonist activity, percent [35S]GTPγS binding at the stated compound concentration given:
> print(dat)
                                   compound  measurementunit  resultnumber
1  COc1cc(C(=O)CC2c3c(cc4c(c3OC)OCO4)CC[N+]2(C)C)cc(OC)c1OC (stereo not shown)                %         119.8
2  COc1cccc(CC(=O)CC2c3c(cc4c(c3OC)OCO4)CC[N+]2(C)C)c1OC (stereo not shown)                %         147.5
3  COc1ccc(CCCCC2c3c(cc4c(c3OC)OCO4)CC[N+]2(C)C)cc1 (stereo not shown)                %         174.7
4  COc1c2c(cc3c1C(CC(=O)Cc1ccccc1F)[N+](C)(C)CC3)OCO2 (stereo not shown)                %         162.1
5  COc1ccccc1CC(=O)CC1c2c(cc3c(c2OC)OCO3)CC[N+]1(C)C (stereo not shown)                %         128.5
6  COc1cc(F)ccc1C(=O)CC1c2c(cc3c(c2OC)OCO3)CC[N+]1(C)C (stereo not shown)                %         168.3

MOR agonist activity, percent [35S]GTPγS binding at the stated compound concentration for mu opiate receptor (MOR) with input COc1c2c(cc3c1C(CC(=O)c1cccc(C(F)(F)F)c1)[N+](C)(C)CC3)OCO2 (stereo not shown) equals 77.0

MOR agonist activity, percent [35S]GTPγS binding at the stated compound concentration for mu opiate receptor (MOR) with input COc1c2c(cc3c1C(CC(=O)c1ccc(O)c(C)c1)[N+](C)(C)CC3)OCO2 (stereo not shown) equals 165.7

MOR agonist activity, percent [35S]GTPγS binding at the stated compound concentration for mu opiate receptor (MOR) with input COc1c2c(cc3c1C(CC(=O)Cc1ccc(C#N)cc1)[N+](C)(C)CC3)OCO2 (stereo not shown) equals 167.4

MOR agonist activity, percent [35S]GTPγS binding at the stated compound concentration for mu opiate receptor (MOR) with input COc1cccc(OC)c1CC(=O)CC1c2c(cc3c(c2OC)OCO3)CC[N+]1(C)C (stereo not shown) equals 61.4

====

target: FLNA pentapeptide of SEQ ID NO: 1 (Bn-VAKGL) (Homo sapiens, UniProt P21333); assay: FITC-NLX-based FLNA screening assay (inhibition of FITC-naloxone binding to Bn-VAKGL on streptavidin plates); settings: FLNA-binding compound 0.01 μM; 10 nM FITC-NLX; read-out: Percent Binding Inhibition
assayMetric: inhibition at 0.01 µM (%)
# number only, unit % dropped from output

> print(dat)
                                   compound  measurementunit  resultnumber
1  O=S(=O)(c1ccc(Br)cc1Br)N1CCC2(CC1)OCCN2S(=O)(=O)c1ccc(Br)cc1Br                %          42.6
2  O=C(OCc1ccccc1)c1ccc(S(=O)(=O)N2CCC3(CC2)OCCN3S(=O)(=O)c2ccc(C(=O)OCc3ccccc3)cc2)cc1                %          42.4
3  CC1CCCC(OCC(O)CN2CC(C)OC(C)C2)C1 (stereo not shown)                %          36.8
4  COc1ccccc1CC(O)CC1c2c(cc3c(c2OC)OCO3)CCN1C (stereo not shown)                %            47

inhibition at 0.01 µM in this record for CCN1CCC2(CC1)OCCN2S(=O)(=O)c1ccc(OC)cc1 [Compound C0089M] : 40.7

inhibition at 0.01 µM in this record for COc1ccc(S(=O)(=O)N2CCOC23CCN(C(=O)OC(C)(C)C)CC3)cc1 : 43.9

inhibition at 0.01 µM in this record for COc1c2c(cc3c1C(CC(=O)CCc1ccccc1)N(C)CC3)OCO2 (stereo not shown) : 29.2

inhibition at 0.01 µM in this record for CC1CCC(C(C)C)C(OCC(O)CN2CC(C)OC(C)C2)C1 (stereo not shown) : 35.6

inhibition at 0.01 µM in this record for O=C1CNC2(CCN(S(=O)(=O)c3ccc(O)cc3)CC2)N1Cc1ccccc1 [Compound C0148M] : 46.2

inhibition at 0.01 µM in this record for CC(=O)c1ccc(S(=O)(=O)N2CCC3(CC2)NCCO3)cc1 : 29

inhibition at 0.01 µM in this record for OC(COc1cccc(C(F)(F)F)c1)CN1CCc2ccccc2C1 (stereo not shown) : 28.7

inhibition at 0.01 µM in this record for COc1ccc(S(=O)(=O)N2CCCC3(C2)OCCN3S(=O)(=O)c2ccc(OC)cc2)cc1 (stereo not shown) [Compound C0145M] : 45.1

inhibition at 0.01 µM in this record for O=[N+]([O-])c1ccc(S(=O)(=O)N2CCC3(CC2)NCCS3)cc1 : 37.3

inhibition at 0.01 µM in this record for C=CCN1CCC2(CC1)OCCN2S(=O)(=O)c1ccc(C(C)=O)cc1 [Compound C0096M] : 43

inhibition at 0.01 µM in this record for COc1ccc(CCC(=O)CC2c3c(cc4c(c3OC)OCO4)CCN2C)cc1 (stereo not shown) : 30.7

inhibition at 0.01 µM in this record for CN1CCC2(CC1)NC(=O)CN2Cc1ccccc1 [Compound C0104M] : 51.4

inhibition at 0.01 µM in this record for O=C1CNC2(CCN(CC3CC3)CC2)N1 [Compound C0123M] : 51.9

inhibition at 0.01 µM in this record for COc1cc(S(=O)(=O)N2CCC3(CC2)OCCN3S(=O)(=O)c2cc(OC)c(OC)c(OC)c2)cc(OC)c1OC : 39.5

inhibition at 0.01 µM in this record for CC(=O)c1ccc(C(=O)N2CCOC23CCN(S(=O)(=O)c2ccc(C(C)=O)cc2)CC3)cc1 : 28.9

inhibition at 0.01 µM in this record for Cc1ccc(C(C)C)c(OCC(O)CN2CC(C)OC(C)C2)c1 (stereo not shown) : 39.5

inhibition at 0.01 µM in this record for CC1CCC(C(C)C)C(OCC(O)CN2CCCCC2=O)C1 (stereo not shown) : 45.6

inhibition at 0.01 µM in this record for CC1CCC(C(C)C)C(OCC(O)CN2CCSC2)C1 (stereo not shown) : 38.7

inhibition at 0.01 µM in this record for CC1CN(CC(O)COc2cccc(F)c2)CC(C)O1 (stereo not shown) : 46.2

====

target: FLNA pentapeptide of SEQ ID NO: 1 (Bn-VAKGL) (Homo sapiens); test: FITC-NLX-based FLNA screening assay (inhibition of FITC-naloxone binding to Bn-VAKGL on streptavidin plates); conditions: FLNA-binding compound 0.01 μM; 10 nM FITC-NLX; read-out: Percent Binding Inhibition
Each entry below lists one item and its recorded inhibition at 0.01 µM value.
# number only, unit % dropped from output

> print(dat)
                                   compound            assaymetric  measurementunit  resultnumber
1  CC1CN(CC(O)COc2cccc(C(F)(F)F)c2)CC(C)O1 (stereo not drawn) [Compound A0051]  inhibition at 0.01 µM                %          45.9
2  O=C1CNC2(CCN(CC3CC3)CC2)N1Cc1ccccc1 [Compound C0124M]  inhibition at 0.01 µM                %          47.7
3  CC1CCC(C(C)C)C(OCC(O)CN2CC(C)CC(C)C2)C1 (stereo not drawn) [Compound A0008]  inhibition at 0.01 µM                %          34.5
4  CC1CCC(C(C)C)C(OCC(O)CN2CCCCCC2)C1 (stereo not drawn) [Compound A0013]  inhibition at 0.01 µM                %          30.2
5  NS(=O)(=O)c1ccc(S(=O)(=O)N2CCC3(CC2)NCCO3)cc1 [Compound C0034-3]  inhibition at 0.01 µM                %          29.6

inhibition at 0.01 µM in this record for O=S(=O)(c1ccc(Cl)cc1)N1CCC2(CC1)OCCN2S(=O)(=O)c1ccc(Cl)cc1 [Compound C0067] : 31.3

inhibition at 0.01 µM in this record for COc1c2c(cc3c1C(CC(O)CCc1ccccc1)N(C)CC3)OCO2 (stereo not drawn) [Compound B0051] : 29.9

inhibition at 0.01 µM in this record for CC1CN(CC(O)COc2ccc(Cl)cc2)CC(C)O1 (stereo not drawn) [Compound A0047] : 40.9

inhibition at 0.01 µM in this record for CC1CCC(C)C(OCC(O)CN2CC(C)OC(C)C2)C1 (stereo not drawn) [Compound A0022] : 41.9
